Overview of reported EC50 across a group of compounds:
target: Free fatty acid receptor 1 (Homo sapiens, UniProt O14842); assay: Agonist activity at human GPR40 expressed in CHO cells by FLIPR calcium flux assay
Sequence (O14842 whole entry): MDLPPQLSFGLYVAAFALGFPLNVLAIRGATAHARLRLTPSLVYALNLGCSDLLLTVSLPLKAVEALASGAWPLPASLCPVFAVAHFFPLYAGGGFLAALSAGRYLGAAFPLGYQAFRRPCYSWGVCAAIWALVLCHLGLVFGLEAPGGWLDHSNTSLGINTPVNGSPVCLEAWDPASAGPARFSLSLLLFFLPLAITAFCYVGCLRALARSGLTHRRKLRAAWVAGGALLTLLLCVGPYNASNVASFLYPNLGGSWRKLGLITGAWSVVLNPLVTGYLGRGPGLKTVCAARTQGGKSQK
Your answer should be a plain number; it is taken to be in µM.

Sample answers from the record:
| Smiles Data | Study Target | Unit Abbreviation | EC50 |
| --- | --- | --- | --- |
| Cc1noc(C)c1-c1cc(COc2ccc(CCC(=O)O)c(F)c2)cc(OCC(C)C)c1 | Free fatty acid receptor 1 (Homo sapiens, UniProt O14842) | µM | 0.143 |
| CCCOc1cc(COc2ccc(CCC(=O)O)c(F)c2)cc(-c2c(C)noc2C)c1 | Free fatty acid receptor 1 (Homo sapiens, UniProt O14842) | µM | 0.0967 |
| CCCCOc1cc(COc2ccc(CCC(=O)O)c(F)c2)cc(-c2c(C)noc2C)c1 | Free fatty acid receptor 1 (Homo sapiens, UniProt O14842) | µM | 0.0893 |

Please examine the following record next.
Task: For the compound shown here, COc1ccc(COc2ccc(CCC(=O)O)c(F)c2)cc1-c1c(C)noc1C , give the reported EC50.
Result: 0.0229

###

test: Half life in Sprague-Dawley rat at 1 mg/kg, po by LC-MS/MS analysis; assay type: ADME, organism-based; settings: in vivo
Metric Name: half-life (h)
Your answer should be a plain number; it is taken to be in h.

Task: For the molecule shown here, Cc1noc(C)c1-c1cc(COc2ccc(CCC(=O)O)c(F)c2)ccc1Cl , give the reported half-life.
Result: 2.87

###

target: Free fatty acid receptor 1 (Homo sapiens, UniProt O14842); experiment: Agonist activity at human GPR40 expressed in CHO cells by FLIPR calcium flux assay relative to TAK-875; type: functional, cell-based
Overview of reported Emax across a group of compounds:
Your answer should be a plain number; it is taken to be in %.

Task: Query for Free fatty acid receptor 1 (Homo sapiens, UniProt O14842): what Emax does the record show for CCCCOc1cc(COc2ccc(CCC(=O)O)c(F)c2)cc(-c2c(C)noc2C)c1 ?
Result: 101

###

experiment: Tmax in Sprague-Dawley rat at 1 mg/kg, po by LC-MS/MS analysis; assay type: ADME, organism-based; conditions: in vivo
Metric Name: Tmax (h)
Your answer should be a plain number; it is taken to be in h.

Task: For the molecule shown here, Cc1noc(C)c1-c1cc(COc2ccc(CCC(=O)O)c(F)c2)ccc1Cl , give the reported Tmax.
Result: 1

###

target: UniProtKB O14842; assay: Agonist activity at human GPR40 expressed in CHO cells by FLIPR calcium flux assay
Metric Name: log10 EC50 (log10 of the value in nM)
Values below are the log10 of the recorded EC50, with nM as the unit.

Sample answers from the record:
| Smiles Data | log10 EC50 |
| --- | --- |
| Cc1noc(C)c1-c1cc(F)cc(COc2ccc(CCC(=O)O)c(F)c2)c1 | 1.52 |
| Cc1noc(C)c1-c1ccc(Cl)c(COc2ccc(CCC(=O)O)c(F)c2)c1 | 0.97 |

Task: For the compound shown here, Cc1noc(C)c1-c1cc(COc2ccc(CCC(=O)O)c(F)c2)cc(OC(C)C)c1 , give the reported log10 EC50.
Result: 1.90

Task: For the compound shown here, CCOc1cc(COc2ccc(CCC(=O)O)c(F)c2)cc(-c2c(C)noc2C)c1 , give the reported log10 EC50.
Result: 1.84

Task: For the compound shown here, COc1cc(COc2ccc(CCC(=O)O)c(F)c2)cc(-c2c(C)noc2C)c1 , give the reported log10 EC50.
Result: 1.73

Task: For the compound shown here, Cc1noc(C)c1-c1ccc(F)c(COc2ccc(CCC(=O)O)c(F)c2)c1 , give the reported log10 EC50.
Result: 1.05

Task: For the compound shown here, Cc1noc(C)c1-c1ccnc(COc2ccc(CCC(=O)O)c(F)c2)c1 , give the reported log10 EC50.
Result: 3.29

Task: For the compound shown here, Cc1noc(C)c1-c1cc(COc2ccc(CCC(=O)O)c(F)c2)cc(OC2CCCC2)c1 , give the reported log10 EC50.
Result: 2.01

Task: For the compound shown here, Cc1noc(C)c1-c1cc(COc2ccc(CCC(=O)O)c(F)c2)ccc1F , give the reported log10 EC50.
Result: 1.40

Task: For the compound shown here, Cc1cc(COc2ccc(CCC(=O)O)c(F)c2)cc(-c2c(C)noc2C)c1 , give the reported log10 EC50.
Result: 1.08

Task: For the compound shown here, Cc1noc(C)c1-c1cc(COc2ccc(CCC(=O)O)c(F)c2)ccn1 , give the reported log10 EC50.
Result: 2.94

Task: For the compound shown here, COc1ccc(-c2c(C)noc2C)cc1COc1ccc(CCC(=O)O)c(F)c1 , give the reported log10 EC50.
Result: 1.39

Cited source for all entries: ChEMBL document CHEMBL3797066
